molecular target: TDO2 (Homo sapiens); construct: decreased levels of NFK in SW48 cells (high TDO expressing cells); assay: TDO2 cell assay (NFK GreenScreen, SW48 cells); format: cell-based; details: SW48 cells (high TDO expressing), 200 uM tryptophan, 24 hours; Table 3; read-out: TDO2 Cell Fluor EC50
Sequence (P48775 whole entry): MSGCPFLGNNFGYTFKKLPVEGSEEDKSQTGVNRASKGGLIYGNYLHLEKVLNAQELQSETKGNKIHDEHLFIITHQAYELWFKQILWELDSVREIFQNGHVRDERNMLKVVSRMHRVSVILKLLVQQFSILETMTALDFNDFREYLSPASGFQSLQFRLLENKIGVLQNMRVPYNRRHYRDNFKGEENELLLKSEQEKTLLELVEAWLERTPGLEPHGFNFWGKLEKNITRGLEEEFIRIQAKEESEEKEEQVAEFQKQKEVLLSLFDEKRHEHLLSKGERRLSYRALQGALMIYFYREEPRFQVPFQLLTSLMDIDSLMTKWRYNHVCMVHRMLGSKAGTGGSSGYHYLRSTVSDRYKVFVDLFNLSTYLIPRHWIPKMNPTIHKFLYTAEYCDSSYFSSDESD
pEC50: −log10 of the molar value.
The label depends only on pEC50: yes if it is at least 6, no if it is smaller.

Worked cases, answers included:
compound	assigned class
N#Cc1ccc2c(c1)CCC(C1c3ccccc3-c3cncn31)C2O (single isomer, unassigned) [Example 62d]	yes
Nc1ncc2c(n1)CCC(C1c3ccccc3-c3cncn31)C2O (single isomer, unassigned) [Example 111a]	yes
CN(C)C(=O)c1ccc2c(c1)CCC(C1c3ccccc3-c3cncn31)C2O (single isomer, unassigned) [Example 98f]	no
OC1c2ccccc2CCC1C1c2ccccc2-c2cncn21 (single isomer, unassigned) [Example 102d]	no
O=S(=O)(C1CC1)N1CC[C@@H](O)[C@H]([C@@H]2c3ccccc3-c3cncn32)C1 (single isomer, unassigned) [Example 70c]	no

Below: the item to evaluate.
Input line: Hello, I need to know if N#CCN1CC[C@@H]([C@@H]2c3ccccc3-c3cncn32)[C@H](O)C1 (single isomer, unassigned) [Example 27d] has measured pEC50 not below 6. Thanks!
Output line: no
